# inhibition at 1 µM listing for each entry below
target: Tyk2 (Homo sapiens); construct: purchased Invitrogen; experiment: Tyk2 enzyme inhibition test (LANCE method); format: biochemical; conditions: test compound 1 μM; read-out: Inhibitory rate (%) Tyk2 1 μM
Sequence (P29597 whole entry): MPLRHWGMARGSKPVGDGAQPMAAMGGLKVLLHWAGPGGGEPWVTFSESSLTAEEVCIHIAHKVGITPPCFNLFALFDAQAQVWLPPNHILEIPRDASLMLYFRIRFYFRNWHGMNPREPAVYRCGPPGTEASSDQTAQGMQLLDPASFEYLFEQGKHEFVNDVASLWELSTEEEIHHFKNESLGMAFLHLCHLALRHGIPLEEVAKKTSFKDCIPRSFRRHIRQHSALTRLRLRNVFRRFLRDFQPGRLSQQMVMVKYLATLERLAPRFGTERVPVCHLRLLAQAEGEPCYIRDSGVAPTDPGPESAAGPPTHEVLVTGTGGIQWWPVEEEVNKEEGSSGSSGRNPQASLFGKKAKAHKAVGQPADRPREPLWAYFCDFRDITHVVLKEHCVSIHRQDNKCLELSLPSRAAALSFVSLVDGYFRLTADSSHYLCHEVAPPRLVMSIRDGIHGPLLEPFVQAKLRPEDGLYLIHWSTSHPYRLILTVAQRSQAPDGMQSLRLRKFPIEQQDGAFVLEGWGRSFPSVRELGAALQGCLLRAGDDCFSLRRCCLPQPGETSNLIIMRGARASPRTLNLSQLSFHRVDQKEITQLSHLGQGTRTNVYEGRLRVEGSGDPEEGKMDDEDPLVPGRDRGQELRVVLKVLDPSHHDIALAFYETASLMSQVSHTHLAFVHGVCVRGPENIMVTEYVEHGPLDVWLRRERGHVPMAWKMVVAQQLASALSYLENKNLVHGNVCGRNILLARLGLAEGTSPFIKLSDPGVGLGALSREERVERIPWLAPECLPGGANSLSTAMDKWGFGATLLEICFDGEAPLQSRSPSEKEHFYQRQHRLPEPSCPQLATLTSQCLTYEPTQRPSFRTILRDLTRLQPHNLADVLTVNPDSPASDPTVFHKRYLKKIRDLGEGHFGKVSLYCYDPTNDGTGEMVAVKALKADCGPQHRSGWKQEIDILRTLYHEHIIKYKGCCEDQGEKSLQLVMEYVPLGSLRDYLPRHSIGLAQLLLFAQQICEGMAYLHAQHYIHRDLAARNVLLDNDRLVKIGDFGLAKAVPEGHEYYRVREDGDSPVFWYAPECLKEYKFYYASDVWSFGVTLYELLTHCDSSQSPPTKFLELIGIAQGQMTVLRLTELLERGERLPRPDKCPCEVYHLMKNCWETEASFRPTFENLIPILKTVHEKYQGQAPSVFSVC
Report the value in % with no unit label.

Consider the worked cases shown below.
molecule	output unit	measured
O=C1NCCN1c1ccc(-c2nn(-c3c(F)cccc3F)c3c(Cl)c[nH]c(=O)c23)cc1 [Example 225]	%	99
O=c1[nH]cc(Cl)c2c1c(-c1ccc(CN3CCOCC3)cc1)nn2-c1c(F)cccc1F [Example 185]	%	99
C[C@H]1CCC[C@H]1n1cc(-c2ccc(S(N)(=O)=O)cc2)c2c(=O)[nH]ccc21 (relative stereo) [Example 71]	%	97
NS(=O)(=O)c1cccc(Nc2nn(C3CCCC3)c3cc[nH]c(=O)c23)c1 [Example 284]	%	96
CCC1(O)CCC(n2nc(-c3ccc(S(N)(=O)=O)cc3)c3c(=O)[nH]ccc32)CC1 (stereo not shown) [Example 209]	%	99
O=c1[nH]ccc2c1c(-c1ccc(C(F)(F)F)cc1)nn2C1CCCC1 [Example 51]	%	84
NC(=O)COc1ccc(-c2nn(-c3c(F)cccc3F)c3c(Cl)c[nH]c(=O)c23)cc1 [Example 169]	%	99
Cc1ccccc1-c1cn(-c2csc(C(N)=O)c2)c2c(=O)[nH]cc(C#N)c12 [Example 102]	%	94

So what does the record say about inhibition at 1 µM for N#Cc1c[nH]c(=O)c2c(-c3cnn(C4CCCC4)c3)cn(C3CCCC3)c12 [Example 137] ?
98

So what does the record say about inhibition at 1 µM for N#Cc1c[nH]c(=O)c2c(-c3csc(C(N)=O)c3)cn(C3CCCC3)c12 [Example 33] ?
99

So what does the record say about inhibition at 1 µM for NC(=O)c1cc(F)c(-n2nc(-c3ccc(N4CCOCC4)cc3)c3c(=O)[nH]ccc32)c(F)c1 [Example 251] ?
99

So what does the record say about inhibition at 1 µM for NC(=O)c1cc(-c2cn(C3CCCC3)c3c(CO)c[nH]c(=O)c23)cs1 [Example 40] ?
78

So what does the record say about inhibition at 1 µM for O=C1NCCN1c1ccc(-c2nn(-c3c(F)cccc3F)c3cc[nH]c(=O)c23)cc1 [Example 276] ?
99

So what does the record say about inhibition at 1 µM for Cc1c[nH]c(=O)c2c(-c3ccc(N4CCOCC4)cc3)nn(-c3c(F)cccc3F)c12 [Example 235] ?
99

So what does the record say about inhibition at 1 µM for NS(=O)(=O)c1ccc(-c2cn(C3CCOC3)c3cc[nH]c(=O)c23)cc1 (stereo not shown) [Example 18] ?
80

So what does the record say about inhibition at 1 µM for CNC(=O)c1ccc(-c2nn(-c3c(F)cccc3C#N)c3cc[nH]c(=O)c23)cc1 [Example 307] ?
99

FYI, the data here is from patent US9371320B2.
